meta.source: PubChem BioAssay (NCATS)

Can you tell me max response for the items I'm about to list?
test system: HaCat; assay: Cytotoxic Profiling of Annotated Libraries Using Quantitative High-Throughput Screening (AID 1296008); conditions: Five cell lines viability, CellTiter-Glo ATP luminescence, 48-72 h; hits give low values; note: % is set by controls: 0 for no effect and ±100 for the full control effect; nearly all actives have a fitted effect of over 60% in size
Inconclusive results are not listed.
Give just the number in %; leave the unit off.

[Q] Retrieve max response on HaCat; query OCCN1CCN(CC/C=C2/c3ccccc3Sc3ccc(C(F)(F)F)cc32)CC1
[A] -11.5

[Q] Retrieve max response on HaCat; query C[C@]12C=CC(=O)C=C1CC[C@H]1[C@@H]3C[C@@H](O)[C@](O)(C(=O)CO)[C@@]3(C)C[C@H](O)[C@@]12F
[A] -5.14

[Q] Retrieve max response on HaCat; query C[C@]12CC[C@@H]3c4ccc(O)cc4C[C@@H](CCCCCCCCCS(=O)CCCC(F)(F)C(F)(F)F)[C@H]3[C@@H]1CC[C@@H]2O (stereo partly specified)
[A] -6.63

[Q] Retrieve max response on HaCat; query NC1=NCC2c3ccccc3Cc3ccccc3N12 (stereo unspecified)
[A] -7.94

[Q] Retrieve max response on HaCat; query Cc1nc2ccccn2c(=O)c1CCN1CCC(C(=O)c2ccc(F)cc2)CC1
[A] -15.4

[Q] Retrieve max response on HaCat; query COC(=O)[C@@H](N)Cc1ccc(O)c(O)c1
[A] 3.62

[Q] Retrieve max response on HaCat; query O=C(O)CCCCCCCC(=O)O
[A] 2.4

[Q] Retrieve max response on HaCat; query NC(=Nc1ccccc1)Nc1ccccc1
[A] 2.68

[Q] Retrieve max response on HaCat; query C=CCc1ccccc1OCC(O)CNC(C)C (stereo unspecified)
[A] 4.41

[Q] Retrieve max response on HaCat; query CCN(CC)CCNC(=O)c1ccc(NC(C)=O)cc1
[A] 0.497

[Q] Retrieve max response on HaCat; query Cc1nc2sccn2c(=O)c1CCN1CCC(=C(c2ccc(F)cc2)c2ccc(F)cc2)CC1
[A] -3.76

[Q] Retrieve max response on HaCat; query CCN(CC)CCNC(=O)c1cc(S(C)(=O)=O)ccc1OC
[A] -0.825

[Q] Retrieve max response on HaCat; query CCCN(CCC)C(=O)C(CCC(=O)O)NC(=O)c1ccccc1 (stereo unspecified)
[A] 4.34

[Q] Retrieve max response on HaCat; query CC(=O)Oc1cc(C(C)C)c(OCCN(C)C)cc1C
[A] 3.27

[Q] Retrieve max response on HaCat; query NC(=O)N1c2ccccc2C=Cc2ccccc21
[A] -8.83

[Q] Retrieve max response on HaCat; query Cc1cc(C)c(/C=C2\C(=O)Nc3ccccc32)[nH]1
[A] -11.3
